Values compiled from patent US11578055B2.

# ASSAY_NAME: In Vitro Microsome Stability Assay (monkey)
# Format: in vitro ADME
# STATED_CONDITIONS: monkey liver microsomes, 30 min w/ NADPH
RESULT_TYPE: Liver Microsome Stability-% Left after 30 min w/ NADPH (%) Monkey
Quick reminder: number only, in %, skip the unit.

Recorded results for 3 compounds are shown here.
{"columns": ["SMILES_TEXT", "DISPLAY_UNIT", "VALUE_MEASURED"],
 "data": [
  ["COc1c(F)cccc1N1CCN(S(=O)(=O)N2CCCN(CC3CCCCC3)CCCN(S(=O)(=O)c3ccc(N(C)C)cc3)C[C@H](C)C2)CC1", "%", 2.27],
  ["C[C@H]1CN(S(=O)(=O)c2ccc(N(C)C)cc2)CCCN(CC(C)(C)C)CCCN(S(=O)(=O)N2CCc3cc(Cl)ccc3C2)C1", "%", 25.0],
  ["CC(=O)N(C)c1ccc(CNS(=O)(=O)N2CCCN(CC3CCCCC3)CCCN(S(=O)(=O)c3ccc(N(C)C)cc3)C[C@H](C)C2)cc1", "%", 0.10]
]}

GET /values?readout=Liver Microsome Stability-% Left after 30 min w/ NADPH (%) Monkey&item= C[C@H]1CN(S(=O)(=O)c2ccc(N(C)C)cc2)CCCN(CC2CCC(F)(F)CC2)CCCN(S(=O)(=O)N2CCc3cc(Cl)ccc3C2)C1
10.0

Which Liver Microsome Stability-% Left after 30 min w/ NADPH (%) Monkey is reported for this compound? C[C@H]1CN(S(=O)(=O)c2ccc(N(C)C)cc2)CCCN(CCC2CCCCC2)CCCN(S(=O)(=O)N2CCc3cc(Cl)ccc3C2)C1
9.76

Looking for the measured Liver Microsome Stability-% Left after 30 min w/ NADPH (%) Monkey of C[C@H]1CN(S(=O)(=O)c2ccc(N(C)C)cc2)CCCN([C@@H](C)C2CCCCC2)CCCN(S(=O)(=O)N2CCc3cc(Cl)ccc3C2)C1 , can you help?
71.6

====

# ASSAY_NAME: In Vitro Microsome Stability Assay (human)
# Format: in vitro ADME
# STATED_CONDITIONS: human, 30 min, NADPH
# Procedure: Potassium phosphate (423 μL of a 0.1 M solution) was added to 8-strip deep well tubes followed by human, mouse, rat, or monkey microsomes (25 μL of a 20 mg/mL solution). The tubes were then placed on ice and the test article (2 μL of a 0.25 mM solution in DMSO) was added. […] Liver microsome stability is assessed by the % remaining of compound at 30 min which is calculated using the following equation: [(AUCanalyteT=30/AUCIS)/(AUCanalyteT=0/AUCIS)]*100 […]
# Liver Microsome Stability-% Left after 30 min w/ NADPH (%) Human per record follows
Respond numerically; units are % and should not be typed.

{"columns": ["COMPOUND", "VALUE_MEASURED"],
 "data": [
  ["C=C1CN(S(=O)(=O)c2ccc(C)cc2)CCCN(CC2CCCCC2)CCCN(S(=O)(=O)c2ccc(OC)cc2)C1", 0.25],
  ["C=C1CN(S(=O)(=O)c2ccc(N(C)C)cc2)CCCN(CC2CCCCC2)CCCN(S(=O)(=O)N2CCC(C#N)CC2)C1", 0.05],
  ["C=C1CN(S(=O)(=O)c2ccc(N(C)C)cc2)CCCN(CC2CCCCC2)CCCN(S(=O)(=O)N2CCC(C3CCCC3)CC2)C1", 53.3]
]}

Lab note: next compound to report on.
Looking for the measured Liver Microsome Stability-% Left after 30 min w/ NADPH (%) Human of C=C1CN(S(=O)(=O)c2ccc(N(C)C)cc2)CCCN(CC2CCCCC2)CCCN(S(=O)(=O)N2CCCC(c3ccccc3)C2)C1 (stereo not shown) , can you help?
11.4
